- study-target: OsWOX13 (Oryza sativa, UniProt Q5QMM3 1-267)
- Sequence: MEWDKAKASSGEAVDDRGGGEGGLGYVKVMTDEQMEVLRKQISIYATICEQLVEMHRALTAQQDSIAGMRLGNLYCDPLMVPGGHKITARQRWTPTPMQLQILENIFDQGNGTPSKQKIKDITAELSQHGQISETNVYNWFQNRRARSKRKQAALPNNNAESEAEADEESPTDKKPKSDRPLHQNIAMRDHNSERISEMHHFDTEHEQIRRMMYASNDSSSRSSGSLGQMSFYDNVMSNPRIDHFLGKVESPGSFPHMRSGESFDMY
- test-description: protein-binding microarray (RPBM); PBS, 2% BSA, 51.3 ng/ul salmon testes DNA, 50 uM zinc acetate, 200 nM TF, 25 C, 1 h; high values mean tight binding
- measurement-parameters: protein: recombinant; tags: N-terminal polyhistidine and DsRed monomer fusion (pET32a); label: CyDye5-dUTP incorporated in the synthesized complementary strand; 3' TTTTT single-stranded linker to array surface; dsDNA, one strand shown
Whole data set: some 35,000 sequences, median “fluorescence intensity (a.u.)” near 10,000, cut for the highest 2% near 52,000. This excerpt belongs to a sample that is enriched for the highest values.
quantity-measured: binding signal

// solved cases for binding signal follow
{"input-sequence": "AACTGATATGTAGGGTATGATTGTAATGAAATTACGATTGCGGAGTCACCTAGTGCAG", "binding signal": "10700 fluorescence intensity (a.u.)"}
{"input-sequence": "GTTAATGATTAATTAGAGCATTTGTTGTCTCAACTATTGTCGGAGTCACCTAGTGCAG", "binding signal": "58600 fluorescence intensity (a.u.)"}
{"input-sequence": "TTCGGTTTTATTTTAATTGACATTTTGGACAATGATACGGCGGAGTCACCTAGTGCAG", "binding signal": "27900 fluorescence intensity (a.u.)"}
{"input-sequence": "TCGTAAATTAATTATTAATAATATACTAATGGTATCCCCACGGAGTCACCTAGTGCAG", "binding signal": "53900 fluorescence intensity (a.u.)"}
{"input-sequence": "AATAATCATACTAATTATATAAGTATATACTAAATATTATCGGAGTCACCTAGTGCAG", "binding signal": "7370 fluorescence intensity (a.u.)"}
{"input-sequence": "CAGTTATGTGATTGGACTATAAATACGATATATGTTGTGTCGGAGTCACCTAGTGCAG", "binding signal": "28700 fluorescence intensity (a.u.)"}

For the next question, use this sequence.
(Q) Given the sequence TTATGTAATTATTATTTATTTTATTGTGACTTAATTTATCCGGAGTCACCTAGTGCAG , what is its reported binding signal?
(A) 15500 fluorescence intensity (a.u.)

###

Quick reference for binding signal among some sequences
- study-target: OsWOX13 (Oryza sativa, UniProt Q5QMM3 1-267)
- Sequence: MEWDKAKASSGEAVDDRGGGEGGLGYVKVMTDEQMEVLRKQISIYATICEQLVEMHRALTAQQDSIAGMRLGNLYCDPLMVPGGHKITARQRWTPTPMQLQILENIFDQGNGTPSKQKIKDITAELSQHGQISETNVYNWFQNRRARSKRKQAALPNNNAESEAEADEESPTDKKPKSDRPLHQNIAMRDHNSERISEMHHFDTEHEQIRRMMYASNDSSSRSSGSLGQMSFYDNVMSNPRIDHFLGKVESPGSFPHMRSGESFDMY
- test-description: protein-binding microarray (RPBM); PBS, 2% BSA, 51.3 ng/ul salmon testes DNA, 50 uM zinc acetate, 200 nM TF, 25 C, 1 h; high values mean tight binding
- measurement-parameters: protein: recombinant; tags: N-terminal polyhistidine and DsRed monomer fusion (pET32a); label: CyDye5-dUTP incorporated in the synthesized complementary strand; 3' TTTTT single-stranded linker to array surface; dsDNA, one strand shown
Over roughly 35,000 sequences, “fluorescence intensity (a.u.)” has its median near 10,000; the highest 2% begin near 52,000. The sample as a whole holds a higher share of the highest values than the screen did.

{"input-sequence": "TGGTGATAATGTCATTCTGTTATTACAGAGGTCAACGTGTCGGAGTCACCTAGTGCAG", "study-target": "OsWOX13 (Oryza sativa, UniProt Q5QMM3 1-267)", "quantity-measured": "binding signal", "result": "3410 fluorescence intensity (a.u.)"}
{"input-sequence": "TGGATTTTAAATTAAGTAAATTGCACCAGCGGTCCTTAAACGGAGTCACCTAGTGCAG", "study-target": "OsWOX13 (Oryza sativa, UniProt Q5QMM3 1-267)", "quantity-measured": "binding signal", "result": "6480 fluorescence intensity (a.u.)"}

(Q) Using the record for TATTTTGTAATCATTTGTTTTATATTTGAATTCCTGTCAGCGGAGTCACCTAGTGCAG , report its binding signal.
(A) 3710 fluorescence intensity (a.u.)

(Q) Next entry: CTTGATTAATCCGTACGTCTATCAACTCAGCCCGAAACGCCGGAGTCACCTAGTGCAG
(A) 46200 fluorescence intensity (a.u.)

(Q) Repeat for the following sequence: TTGCAAAACTGGCTTAATTGATTCCATATTTCCATTCCACCGGAGTCACCTAGTGCAG
(A) 32200 fluorescence intensity (a.u.)

(Q) Note, next up: AATGATTGACAATACTTAGATTTCTTCCCTTAATTACATCCGGAGTCACCTAGTGCAG
(A) 54400 fluorescence intensity (a.u.)

(Q) Next up: AAAATTGAAATTTTCAACATTAAATTTGGATTAGATTTTGCGGAGTCACCTAGTGCAG
(A) 19200 fluorescence intensity (a.u.)

(Q) Now consider TTAATTGATTTAGTTGGTGACCTTATATCTTGTTTAGATACGGAGTCACCTAGTGCAG .
(A) 60600 fluorescence intensity (a.u.)

(Q) Try this sequence too: TCTAACTGTGGATAATATCTGACAGGAAATTTGATATCAACGGAGTCACCTAGTGCAG
(A) 6210 fluorescence intensity (a.u.)

(Q) Try this sequence too: GTATATTTAATAATAAATCAACTCGCAATGAGACAAAATGCGGAGTCACCTAGTGCAG
(A) 4570 fluorescence intensity (a.u.)

(Q) Try this sequence next: GTCAACTGGAAATTGAAATTCAGCCAAAATTAGTGATCAGCGGAGTCACCTAGTGCAG
(A) 4850 fluorescence intensity (a.u.)

(Q) Please do the same for TTTGATTGTGGTTATTGCACTGAAATTTTACAGATATTGTCGGAGTCACCTAGTGCAG as well.
(A) 31800 fluorescence intensity (a.u.)

(Q) Input ACACAGCTAATTAGCTCTATGACTAAATGAATAAAATGACCGGAGTCACCTAGTGCAG
(A) 25800 fluorescence intensity (a.u.)

(Q) Try the sequence ATATAATTATAATTTATTTTATTGTGACTTGATTTATCATCGGAGTCACCTAGTGCAG
(A) 36400 fluorescence intensity (a.u.)

(Q) Now give it for TTTAATTGGTTAAATGAACTATGTAATGTTATAATTATATCGGAGTCACCTAGTGCAG too.
(A) 33200 fluorescence intensity (a.u.)

(Q) TGATTTGGCTGATTAGATGCAATTTAGTCCTGCCACTGTGCGGAGTCACCTAGTGCAG , same question.
(A) 16900 fluorescence intensity (a.u.)

(Q) Same lookup for AGATAATTTAATTGTTAACCATGTATGGCTGTAAGGGTATCGGAGTCACCTAGTGCAG , please.
(A) 43900 fluorescence intensity (a.u.)

(Q) Same question for GTCGATAAATTATTCGCGGCACAATTATTTGTGCCCCATTCGGAGTCACCTAGTGCAG please.
(A) 5580 fluorescence intensity (a.u.)

(Q) Quick one: ATTAATTAATTAGTGATCATACATAATTGAGGTGATTTATCGGAGTCACCTAGTGCAG
(A) 65000 fluorescence intensity (a.u.)

(Q) Moving on to the next sequence: ATTAAAACTTAATTAAATATACTAATAGCTTTCTCATTTTCGGAGTCACCTAGTGCAG
(A) 7350 fluorescence intensity (a.u.)

(Q) Record: GTAGATATTGATGATTTATATAACTTTGTTGTTGATGACTCGGAGTCACCTAGTGCAG
(A) 14500 fluorescence intensity (a.u.)
